target.or.test.system: Homeobox protein Hox-A13 (Mus musculus) (UniProt Q62424)
Sequence (Q62424 whole entry, looked up): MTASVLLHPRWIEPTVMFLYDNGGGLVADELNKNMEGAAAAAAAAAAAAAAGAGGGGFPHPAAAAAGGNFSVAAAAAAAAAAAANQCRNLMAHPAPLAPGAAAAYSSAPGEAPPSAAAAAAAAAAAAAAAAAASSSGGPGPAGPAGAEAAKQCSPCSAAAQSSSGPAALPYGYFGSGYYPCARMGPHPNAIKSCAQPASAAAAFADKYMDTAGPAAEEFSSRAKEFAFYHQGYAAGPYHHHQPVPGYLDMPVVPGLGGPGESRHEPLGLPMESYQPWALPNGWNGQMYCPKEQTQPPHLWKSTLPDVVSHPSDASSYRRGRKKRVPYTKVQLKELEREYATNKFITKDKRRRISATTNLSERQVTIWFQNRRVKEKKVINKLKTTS
assay.info: inhibitors of HoxA13-DNA binding, primary screen, biochemical, fluorescence polarization, labeled oligonucleotide (AID 1185)
experimental.conditions: 15 min, higher = more signal, called active from +8 up or from −8 down
z-score values by entry
The response must contain the number and no unit.

compound	z-score
COC(=O)[C@@]1(Cc2ccc(OC)cc2)[C@H]2c3cc(C(=O)N4CCCC4)n(CCc4c[nH]c5cc(F)ccc45)c3C[C@H]2CN1C(=O)c1ccccc1	0.828
COc1ccc(CCN2C(=O)[C@@]3(Cc4ccccc42)c2ccccc2C(=O)N(Cc2ccccc2Cl)[C@H]3c2ccc(CO)cc2)cc1	-0.482
COCCOC(=O)N1C(=O)[C@@]2(c3cc(C#CCC(C(=O)OC)C(=O)OC)ccc31)[C@H](c1ccc(O)cc1)N1[C@H](c3ccccc3)[C@H](c3ccccc3)OC(=O)[C@H]1[C@@H]2C(N)=O	-3.8

# z-score of COc1ccc([Si](C)(C)[C@@H]2[C@@H](CC(=O)N3CCC[C@H]3CO)O[C@]3(C(=O)N(C)c4c(Br)cc(C)cc43)[C@H]2C)cc1 = -6.11

# z-score of N[C@@H](Cc1ccccc1)Cn1cc(-c2ccccc2)nn1 = -0.823

# z-score of CC(C)N1C(=O)C[C@@](C(=O)NCc2ccccc2)(c2ccc([N+](=O)[O-])cc2)[C@H]1c1ccc(CO)cc1 = -1.27

# z-score of CC(C)(C)OC(=O)CC[C@]1(C(=O)N2CCCCC2)N=C(c2ccc(OCCCO)cc2)O[C@H]1c1ccccc1N=[N+]=[N-] = -2.92

# z-score of CC(C)CNC(=O)[C@@H]1c2ccccc2C(=O)N(Cc2cc(C(F)(F)F)cc(C(F)(F)F)c2)[C@H]1c1ccc(CO)cc1 = -1.46

* * *

assay.info: P. aeruginosa biofilm formation inhibitors, primary screen, strain PAO1, LB-PBS medium, absorbance 600 nm (AID 1176); also: test concentration not given here
experimental.conditions: P. aeruginosa PAO1 growth/biofilm, A600, 12 h; higher = more signal
Outcome label depends on z-score relative to 0.7: at/above gives Condition met, below gives Condition not met.

Illustrative cases are given below, each with its answer.
compound	classification
COCCOC(=O)N1C(=O)[C@@]2(c3cc(C#CCNC(N)=O)ccc31)[C@H](C(=O)N1CCc3cc(OC)c(OC)cc3C1)[C@H]1C(=O)O[C@H](c3ccccc3)[C@H](c3ccccc3)N1[C@@H]2c1ccc(OCCO)cc1	Condition met
C=CCOC(=O)[C@@H]1[C@H]2C(=O)O[C@H](c3ccccc3)[C@H](c3ccccc3)N2[C@H](c2ccc(OCCOC(=O)[C@@H]3C[C@@H]4C(=O)N[C@@H](Cc5ccccc5)C(=O)N4[C@@H]3c3cccc(OCCO)c3)cc2)[C@@]12C(=O)Nc1ccc(I)cc12	Condition met
COc1ccc([Si](C)(C)[C@@H]2[C@@H](CCn3cc([C@H](O)c4ccccc4)nn3)O[C@]3(C(=O)N(Cc4cccc(N5CCOC5=O)c4)c4ccccc43)[C@H]2C)cc1	Condition met
CC(C)N1C(=O)c2ccccc2[C@@H](C(=O)NCCCN(C)C)[C@@H]1c1ccc(CO)cc1	Condition not met
COc1ccc(C#Cc2ccc3c(c2)[C@]2(C(=O)N3)[C@H](c3ccc(O)cc3)N3[C@H](c4ccccc4)[C@H](c4ccccc4)OC(=O)[C@H]3[C@@H]2C(=O)NC[C@H](O)c2ccccc2)cc1	Condition not met
O=C1C2C=CC(C(O)c3ccc(F)cc3)N(Nc3ccccc3)C2C(=O)N1c1ccccc1 (configuration not stated)	Condition met

Prompt: Would you say O=C1OCCC=C[C@H]2OC34C=CCN(c5ccc6ccccc6c5)C(=O)[C@H]3N(CCCCCO)C(=O)[C@@H]4C12 (some centres not stated) shows z-score at minimum 0.7?
Response: Condition not met

Prompt: Would you say COc1cc2c(cc1O)C(C)N(Cc1cccc(OC(F)(F)F)c1)CC2 (configuration not stated) shows z-score at minimum 0.7?
Response: Condition not met

Prompt: Would you say C=CCC(OC(C)=O)[C@@H]1[C@@H](N(Cc2ccc(-c3ccccc3)cc2)C(=O)Cc2ccc(OC)cc2)c2cc(OCCCO)ccc2N1C(=O)c1ccc2ccccc2n1 (some centres not stated) shows z-score at minimum 0.7?
Response: Condition not met

Prompt: Would you say O=C1C2C=CC(C(O)c3cccs3)N(Nc3ccccc3F)C2C(=O)N1c1ccccc1 (configuration not stated) shows z-score at minimum 0.7?
Response: Condition not met

Prompt: Would you say O=C1OCCC/C=C\[C@H]2OC34C=CCN(Cn5nnc6ccccc65)C(=O)[C@H]3N(CCCCCO)C(=O)[C@@H]4C12 (some centres not stated) shows z-score at minimum 0.7?
Response: Condition not met

Prompt: Would you say CCN(CC)c1ccc(N2CC=CC34O[C@@H]5C=CCCOC(=O)C5[C@H]3C(=O)N(CCCCCO)[C@@H]4C2=O)cc1 (some centres not stated) shows z-score at minimum 0.7?
Response: Condition not met

Prompt: Would you say COCCOC(=O)N1C(=O)[C@@]2(c3cc(C#CCNC(N)=O)ccc31)[C@H](C(=O)N1CCN(c3ncccn3)CC1)[C@H]1C(=O)O[C@H](c3ccccc3)[C@H](c3ccccc3)N1[C@@H]2c1ccccc1OCCO shows z-score at minimum 0.7?
Response: Condition not met

Prompt: Would you say COc1ccc([Si](C)(C)[C@@H]2[C@@H](CC(=O)N3CCC[C@H]3CO)O[C@]3(C(=O)N(C)c4c(Br)cc(C)cc43)[C@H]2C)cc1 shows z-score at minimum 0.7?
Response: Condition not met

Prompt: Would you say Cc1ccc(S[C@]2(C(=O)NCC(C)C)CC(=O)N(Cc3ccccc3Cl)[C@@H]2c2ccc(CO)cc2)cc1 shows z-score at minimum 0.7?
Response: Condition not met

Prompt: Would you say [N-]=[N+]=NCc1ccccc1C[C@]1(C(=O)O)N=C(c2ccc(OCCCO)cc2)O[C@H]1c1ccccc1 shows z-score at minimum 0.7?
Response: Condition met

* * *

assay.info: FRG1 promoter luciferase signal modulators, primary screen, FRG1 inhibition for FSHD, cell-based, C2C12 myotubes, firefly/Renilla luciferase, luminescence (AID 1084)
experimental.conditions: higher = more signal, called active from +8 up or from −8 down
Outcome label depends on z-score relative to -0.9: at/above gives yes (1), below gives no (0).

compound	classification
CN(C)C(=O)[C@]1(CCC(=O)OC(C)(C)C)N=C(c2ccc(OCCCO)cc2)O[C@@H]1c1ccccc1N=[N+]=[N-]	yes (1)

Prompt: Would you say CS(=O)(=O)CCOC(=O)C1=CC(CCCO)=CC(c2cccs2)N(Cc2cc3c(cc2Br)OCO3)C=C1C(=O)OCCS(C)(=O)=O (configuration not stated) shows z-score at minimum -0.9?
Response: no (0)

Prompt: Would you say O=C1O[C@@H](c2ccccc2)[C@@H](c2ccccc2)N2[C@@H](c3ccc(O)cc3)[C@]3(C(=O)Nc4ccc(C#CC5(O)CCCCCC5)cc43)[C@@H](C(=O)N3CCCCCCC3)[C@H]12 shows z-score at minimum -0.9?
Response: yes (1)

Prompt: Would you say [N-]=[N+]=NCc1ccccc1[C@@H]1OC(c2ccc(OCCCO)cc2)=N[C@]1(Cc1ccccc1)C(=O)N1CCCCC1 shows z-score at minimum -0.9?
Response: no (0)

* * *

z-score values by entry
target.or.test.system: Homeobox protein Hox-A13 (Mus musculus) (UniProt Q62424)
assay.info: inhibitors of HoxA13-DNA binding, primary screen, biochemical, fluorescence polarization, labeled oligonucleotide (AID 1185)
experimental.conditions: 15 min, higher = more signal, called active from +8 up or from −8 down
The response must contain the number and no unit.

Reference set, count: 4
> print(dat)
                                chem.smiles                     target.or.test.system  recorded.endpoint  assay.value
1  CCOC(=O)C[C@H]1[C@H](OC(=O)c2ccc(-c3ccccc3)cc2)[C@@H](NC(=O)c2ccc(-c3ccccc3)cc2)c2cc(OCCCO)ccc2N1C(=O)Cc1ccc(OC)cc1  Homeobox protein Hox-A13 (Mus musculus) (UniProt Q62424)            z-score        -1.54
2  CCOC(=O)C[C@H]1[C@H](OC(=O)c2ccc(-c3ccccc3)cc2)[C@@H](NC(=O)c2ccc3ccccc3c2)c2cc(OCCCO)ccc2N1C(=O)Cc1ccc(OC)cc1  Homeobox protein Hox-A13 (Mus musculus) (UniProt Q62424)            z-score        -1.89
3  CN(C)C(=O)[C@]1(CCC(=O)OC(C)(C)C)N=C(c2ccc(OCCCO)cc2)O[C@@H]1c1ccccc1N=[N+]=[N-]  Homeobox protein Hox-A13 (Mus musculus) (UniProt Q62424)            z-score        -6.23
4  [N-]=[N+]=NCc1ccccc1C[C@]1(C(=O)O)N=C(c2ccc(OCCCO)cc2)O[C@H]1c1ccccc1CN=[N+]=[N-]  Homeobox protein Hox-A13 (Mus musculus) (UniProt Q62424)            z-score        -4.69

Record Cc1ccc([C@H]2[C@H](C(=O)O)[C@H](Sc3ccccc3)[C@@H](C(C)C)N2S(=O)(=O)c2ccc(C)cc2)cc1 / Homeobox protein Hox-A13 (Mus musculus) (UniProt Q62424), z-score recorded as -6
